Reported self-aminoacylation values for the following sequences.
- Tested on: biotinyl-Ile-oxazolone
- METHOD_SUMMARY: self-aminoacylation, catalytic enhancement (BIO) (fold over background); higher = more active; k-Seq, kA / k0A0; sequences stand for … in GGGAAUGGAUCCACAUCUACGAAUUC…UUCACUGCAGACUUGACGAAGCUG
This sample holds only a part of the variants without activity.

{"columns": ["RESIDUE_STRING", "self-aminoacylation"],
 "data": [
  ["AAUCACCUAGCUCAUCGGGUG [Fam2.2 aminoacylation ribozyme variant]", 2.33],
  ["AAGUUUGCUGAUAGUCACAAG [Fam3.1 aminoacylation ribozyme variant]", 1.15],
  ["CCACUUCAAAGAAUCGGUCUG [Fam1A.1 aminoacylation ribozyme variant]", 1.15],
  ["AAGUUUGCUAAUUGUCGCAGG [Fam3.1 aminoacylation ribozyme variant]", 1.19],
  ["AAGUUUACUAAUAGUCGCGAG [Fam3.1 aminoacylation ribozyme variant]", 1.83],
  ["AUUACCCUGGUCAUCCAGUGG [Fam2.1 aminoacylation ribozyme variant]", 1.22],
  ["AUUUACCUAGGUCAUCUGGUG [Fam2.2 aminoacylation ribozyme variant]", 2.15],
  ["AUUCACCUAAGUCAUCGGGUA [Fam2.2 aminoacylation ribozyme variant]", 2.81],
  ["CUACUUCAAGGAAUCGGUCUG [Fam1A.1 aminoacylation ribozyme variant]", 1.54],
  ["CUGCUUCAAACAAUCGCUCUG [Fam1A.1 aminoacylation ribozyme variant]", 0.876],
  ["CUACUUCAAACGAUCGGCCUG [Fam1A.1 aminoacylation ribozyme variant]", 1.55],
  ["AUUCACUUAGGUCAUCGGAUG [Fam2.2 aminoacylation ribozyme variant]", 0.701],
  ["AUUACCCGGGUCAGCGAGUGA [Fam2.1 aminoacylation ribozyme variant]", 5.75],
  ["AAGUUUGCAAAUAGUCACAAG [Fam3.1 aminoacylation ribozyme variant]", 1.05],
  ["CUAAUUCAAACAAUCGGUCUA [Fam1A.1 aminoacylation ribozyme variant]", 0.612],
  ["AAGGUUGCUAAUAGUCGCUAG [Fam3.1 aminoacylation ribozyme variant]", 1.3],
  ["AUUCAUCUAGGCCAUCGGGUG [Fam2.2 aminoacylation ribozyme variant]", 2.39],
  ["AUUACCCUGGUCAUUGAGUGA [Fam2.1 aminoacylation ribozyme variant]", 4.27]
]}
